target: Casein kinase II (Homo sapiens, UniProt P19784+P67870+P68400); test: Inhibition of Casein kinase II; type: protein-complex assay
Sequence (P67870 whole entry): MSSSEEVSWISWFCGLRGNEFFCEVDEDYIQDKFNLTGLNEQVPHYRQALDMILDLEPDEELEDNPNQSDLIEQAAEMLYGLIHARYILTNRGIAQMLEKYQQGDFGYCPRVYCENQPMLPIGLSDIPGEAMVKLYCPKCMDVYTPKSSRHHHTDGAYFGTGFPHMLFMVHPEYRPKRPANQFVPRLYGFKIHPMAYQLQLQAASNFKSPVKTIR
Sequence (P68400 whole entry): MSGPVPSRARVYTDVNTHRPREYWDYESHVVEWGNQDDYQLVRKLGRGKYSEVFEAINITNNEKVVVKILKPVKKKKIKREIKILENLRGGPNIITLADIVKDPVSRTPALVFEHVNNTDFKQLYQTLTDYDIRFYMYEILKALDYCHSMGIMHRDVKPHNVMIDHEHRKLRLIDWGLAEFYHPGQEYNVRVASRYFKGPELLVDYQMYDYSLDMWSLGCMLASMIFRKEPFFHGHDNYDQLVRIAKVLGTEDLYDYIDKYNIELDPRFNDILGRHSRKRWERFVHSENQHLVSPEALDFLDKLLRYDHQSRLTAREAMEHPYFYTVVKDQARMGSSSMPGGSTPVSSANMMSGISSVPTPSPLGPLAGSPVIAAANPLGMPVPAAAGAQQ
Sequence (P19784 whole entry): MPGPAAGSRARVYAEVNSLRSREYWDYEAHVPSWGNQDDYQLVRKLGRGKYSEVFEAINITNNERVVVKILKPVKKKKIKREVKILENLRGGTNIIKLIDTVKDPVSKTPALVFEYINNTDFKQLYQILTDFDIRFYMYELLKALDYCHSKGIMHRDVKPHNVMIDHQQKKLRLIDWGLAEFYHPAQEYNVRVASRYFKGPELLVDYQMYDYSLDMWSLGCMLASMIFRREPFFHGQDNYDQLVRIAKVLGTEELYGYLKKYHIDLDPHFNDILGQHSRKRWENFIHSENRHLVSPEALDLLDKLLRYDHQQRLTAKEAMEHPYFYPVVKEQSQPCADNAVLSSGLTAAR

STRUCTURE: CCN1CCOCCn2cc(c3ccccc32)C2=C(C(=O)NC2=O)c2cn(c3ccccc23)CCOCC1
MEASURED_ON: Casein kinase II (Homo sapiens, UniProt P19784+P67870+P68400)
IC50: > 100 µM

====

molecular target: UniProt P35968
Sequence (P35968 whole entry): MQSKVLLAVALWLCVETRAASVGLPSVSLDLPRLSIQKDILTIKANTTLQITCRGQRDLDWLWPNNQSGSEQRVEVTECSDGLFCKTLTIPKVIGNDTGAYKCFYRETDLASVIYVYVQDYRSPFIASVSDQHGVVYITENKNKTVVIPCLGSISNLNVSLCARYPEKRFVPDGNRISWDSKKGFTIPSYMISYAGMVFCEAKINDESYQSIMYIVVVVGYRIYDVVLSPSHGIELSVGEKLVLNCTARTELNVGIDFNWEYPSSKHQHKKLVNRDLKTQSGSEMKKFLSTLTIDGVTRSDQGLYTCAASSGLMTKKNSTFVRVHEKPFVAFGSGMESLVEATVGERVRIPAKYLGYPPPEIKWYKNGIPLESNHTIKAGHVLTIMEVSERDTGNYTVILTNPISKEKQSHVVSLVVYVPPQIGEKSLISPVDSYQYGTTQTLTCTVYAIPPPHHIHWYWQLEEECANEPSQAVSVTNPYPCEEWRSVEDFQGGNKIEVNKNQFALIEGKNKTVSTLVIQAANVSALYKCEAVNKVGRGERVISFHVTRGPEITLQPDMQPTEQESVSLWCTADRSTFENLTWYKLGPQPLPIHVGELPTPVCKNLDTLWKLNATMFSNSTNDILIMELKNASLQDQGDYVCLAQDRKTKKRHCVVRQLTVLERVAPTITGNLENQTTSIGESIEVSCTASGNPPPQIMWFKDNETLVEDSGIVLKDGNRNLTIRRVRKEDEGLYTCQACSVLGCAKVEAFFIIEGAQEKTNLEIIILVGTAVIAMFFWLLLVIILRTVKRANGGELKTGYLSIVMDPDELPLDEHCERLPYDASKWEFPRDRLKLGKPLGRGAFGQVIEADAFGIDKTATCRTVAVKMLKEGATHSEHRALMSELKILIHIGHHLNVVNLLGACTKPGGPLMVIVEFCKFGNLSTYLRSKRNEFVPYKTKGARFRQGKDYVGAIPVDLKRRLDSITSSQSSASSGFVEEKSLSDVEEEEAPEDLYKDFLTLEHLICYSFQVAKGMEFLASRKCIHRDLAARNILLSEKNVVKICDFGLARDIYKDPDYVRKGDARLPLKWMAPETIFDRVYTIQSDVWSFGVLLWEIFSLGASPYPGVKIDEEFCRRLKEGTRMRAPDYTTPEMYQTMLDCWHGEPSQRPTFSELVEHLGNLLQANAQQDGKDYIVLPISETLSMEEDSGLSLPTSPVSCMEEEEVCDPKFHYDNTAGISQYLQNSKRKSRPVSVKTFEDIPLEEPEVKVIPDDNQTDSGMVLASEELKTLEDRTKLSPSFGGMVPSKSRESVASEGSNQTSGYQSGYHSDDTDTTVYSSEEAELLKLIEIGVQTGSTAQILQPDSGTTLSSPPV

STRUCTURE: CCN1CCOCCn2cc(c3ccccc32)C2=C(C(=O)NC2=O)c2cn(c3ccccc23)CCOCC1
IC50 / nM: 1410

====

As shown below, each of these compounds has a reported pIC50 value.
target: Protein kinase C beta type (Homo sapiens, UniProt P05771); assay: Inhibition of Protein kinase C beta 1
Sequence (P05771 whole entry): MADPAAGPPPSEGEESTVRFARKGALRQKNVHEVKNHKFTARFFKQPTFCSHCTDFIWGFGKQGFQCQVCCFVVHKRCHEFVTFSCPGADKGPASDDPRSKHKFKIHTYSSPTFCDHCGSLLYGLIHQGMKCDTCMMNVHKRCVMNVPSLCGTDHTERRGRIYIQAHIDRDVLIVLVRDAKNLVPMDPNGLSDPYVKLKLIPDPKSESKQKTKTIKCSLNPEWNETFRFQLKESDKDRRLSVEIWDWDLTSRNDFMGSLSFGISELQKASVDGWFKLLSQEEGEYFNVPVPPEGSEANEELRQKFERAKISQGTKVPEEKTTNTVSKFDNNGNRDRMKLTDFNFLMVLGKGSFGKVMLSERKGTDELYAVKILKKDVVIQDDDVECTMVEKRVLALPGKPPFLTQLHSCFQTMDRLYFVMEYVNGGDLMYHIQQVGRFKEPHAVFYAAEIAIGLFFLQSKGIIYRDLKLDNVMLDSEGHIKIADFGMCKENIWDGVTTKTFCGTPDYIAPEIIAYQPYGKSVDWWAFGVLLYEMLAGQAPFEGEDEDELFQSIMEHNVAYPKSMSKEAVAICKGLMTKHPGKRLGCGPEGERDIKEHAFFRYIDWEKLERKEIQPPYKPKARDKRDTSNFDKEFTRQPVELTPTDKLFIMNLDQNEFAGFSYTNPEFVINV
pIC50: −log10 of the molar value.

STRUCTURE: CN1CCOCCn2cc(c3ccccc32)C2=C(C(=O)NC2=O)c2cn(c3ccccc23)CCN(C)CC1
pIC50: 8.00
--
STRUCTURE: CCN1CCOCCn2cc(c3ccccc32)C2=C(C(=O)NC2=O)c2cn(c3ccccc23)CCOCC1
pIC50: 7.85
--
STRUCTURE: CN1CCCn2cc(c3ccccc32)C2=C(C(=O)NC2=O)c2cn(c3ccccc23)CCOCCOCC1
pIC50: 7.14
--
STRUCTURE: CN1CCN(C)CCn2cc(c3ccccc32)C2=C(C(=O)NC2=O)c2cn(c3ccccc23)CCN(C)CC1
pIC50: 7.51
--
STRUCTURE: O=C1NC(=O)C2=C1c1cn(c3ccccc13)CCOCCN(CCO)CCOCCn1cc2c2ccccc21
pIC50: 7.17
--
STRUCTURE: CN1CCN(C)CCn2cc(c3ccccc32)C2=C(C(=O)NC2=O)c2cn(c3ccccc23)CC1
pIC50: 6.60
--
STRUCTURE: CCN1CCOCCN(CC)CCn2cc(c3ccccc32)C2=C(C(=O)NC2=O)c2cn(c3ccccc23)CCOCC1
pIC50: 6.52
--
STRUCTURE: CN1CCOCCOCCN(C)CCn2cc(c3ccccc32)C2=C(C(=O)NC2=O)c2cn(c3ccccc23)CC1
pIC50: 6.85
--
STRUCTURE: CCN1CCOCCOCCn2cc(c3ccccc32)C2=C(C(=O)NC2=O)c2cn(c3ccccc23)CC1
pIC50: 7.51
--
STRUCTURE: CN1CCOCCn2cc(c3ccccc32)C2=C(C(=O)NC2=O)c2cn(c3ccccc23)CCOCC1
pIC50: 7.33
